- testedOn: CYP26A1 (Homo sapiens (Human))
- Sequence (O43174 whole entry): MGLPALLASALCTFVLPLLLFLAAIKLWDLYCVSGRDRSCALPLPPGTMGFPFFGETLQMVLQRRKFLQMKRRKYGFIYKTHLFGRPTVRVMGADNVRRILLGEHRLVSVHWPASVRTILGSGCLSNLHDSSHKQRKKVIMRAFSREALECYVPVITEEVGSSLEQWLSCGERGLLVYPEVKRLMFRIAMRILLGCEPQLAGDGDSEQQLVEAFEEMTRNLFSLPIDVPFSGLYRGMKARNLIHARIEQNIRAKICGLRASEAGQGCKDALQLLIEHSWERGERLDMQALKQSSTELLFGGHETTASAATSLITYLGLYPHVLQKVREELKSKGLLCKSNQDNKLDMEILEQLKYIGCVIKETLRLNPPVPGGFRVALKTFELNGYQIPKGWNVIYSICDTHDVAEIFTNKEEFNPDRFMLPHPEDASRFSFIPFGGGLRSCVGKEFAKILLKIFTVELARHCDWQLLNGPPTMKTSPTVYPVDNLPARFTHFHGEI
- experimentSummary: Cell-based inhibitor assay ([3H]-RA metabolism), CYP26A1 stably transfected HeLa cells
- conditionsUsed: IC50 relative to ketoconazole
assayReadout: CYP26A1 Rel. to keto

1) CC(C)(C)c1cccc(-c2cc3cc(CC(=O)O)ccc3o2)c1	1.2
2) CC(C)(C)c1cccc(C(=O)Cc2ccc(/C=C/C(=O)O)cc2)c1	21.7

[P] Cc1ccc(C(C)(C)C)cc1-c1cc2cc(/C=C/C(=O)O)ccc2[nH]1
[Q] C=CCc1cc(C(=O)Cc2ccc(CC(=O)O)cc2)cc2c1OC(C)(C)CC2(C)C
[R] CC1(C)CC(C)(C)c2cc(B3Oc4ccc(CC(=O)O)cc4O3)cc(C3CC3)c2O1
[S] CC(C)(C)c1cccc(-c2cc3cc(/C=C/C(=O)O)ccc3[nH]2)c1
Request: Order each entry by recorded CYP26A1 Rel. to keto, climbing from the minimum. Provide the labels, sequenced as the question asks.
Response: Q, P, S, R
(Q: 1.2, P: 1.9, S: 4.4, R: 20)
